- Target System: Glucagon-like peptide 1 receptor (Homo sapiens) (UniProt P43220)
- Sequence (P43220 whole entry, looked up): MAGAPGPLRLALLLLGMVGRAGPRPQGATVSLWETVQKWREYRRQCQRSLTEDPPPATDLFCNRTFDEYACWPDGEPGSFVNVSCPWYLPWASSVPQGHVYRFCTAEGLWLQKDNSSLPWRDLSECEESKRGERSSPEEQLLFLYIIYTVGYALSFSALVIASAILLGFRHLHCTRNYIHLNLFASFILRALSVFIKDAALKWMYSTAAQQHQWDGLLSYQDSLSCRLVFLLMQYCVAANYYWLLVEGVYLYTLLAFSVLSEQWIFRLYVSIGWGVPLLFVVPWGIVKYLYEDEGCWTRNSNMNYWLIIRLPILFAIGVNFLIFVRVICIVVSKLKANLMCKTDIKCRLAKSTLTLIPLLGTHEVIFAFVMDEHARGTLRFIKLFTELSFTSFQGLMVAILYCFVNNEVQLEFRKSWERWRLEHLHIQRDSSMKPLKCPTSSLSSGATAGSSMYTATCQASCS
- Experiment Notes: qHTS of GLP-1 Receptor Inverse Agonists (Inhibition Mode); also: nearly all actives have a fitted effect of over 55% in size
- Protocol Conditions: HEK293 GLP-1R CRE-luciferase, luminescence, 24 h; series mostly up to 38.3 µM
Out of some 410,000 compounds screened, about 6,400 (1.6%) were called active. Inconclusive results (about 20%) are left out. Calls follow the shape of the dose curve; as a rule, active = well fitted inhibition curve with a large enough effect; inconclusive = small, poorly fitted or top-dose-only effect; inactive = no such curve, though single readings can be large or run the other way. For the sample, actives were picked, then their nearest neighbours and some compounds at random.
Respond with a class label; see YES for active, NO for inactive

# count of solved cases: 4
Problem: Which outcome was assigned to "Cc1ccc(S(=O)(=O)N(C)c2ccc(C(=O)NCC3(N(C)C)CCCCC3)cc2)cc1" in this test?
Solution: YES

Problem: Record: "CCOc1ccc(CC(=O)NCCc2csc3nc(-c4ccccc4F)nn23)cc1"
Solution: NO

Problem: Further, for CCOC(=O)C1(Cc2ccc(Cl)cc2)CCN(C(C)CCn2cccn2)CC1 (stereo not given) ?
Solution: YES

Problem: Moving on to "O=C(C1CCN(S(=O)(=O)c2ccc(Br)s2)CC1)N1CCN(c2ccccc2)CC1"
Solution: NO

Shift focus to the following entry.
Problem: Which outcome was entered for the compound "CCOC(=O)CNC(=O)N1Cc2cc(N3CCCCC3)ccc2-n2nncc2C1" in this test?
Solution: NO
